difference in activity during first hour reference
Test system: Danio rerio larvae (5 dpf)
Test: difference in activity during first hour vs DMSO (percentage points); higher = more activity than DMSO
Settings: 10 µM; exposure time 6 h
Where a name gives a salt, the structure may show the parent alone.
Output spec: single numeric token, no unit.

Past entries and their recorded results:
Req: Reported difference in activity during first hour, compound CNC1(C)C2CCC(C2)C1(C)C (stereo unspecified) [Mecamylamine (hydrochloride)] : ____
Resp: -1.28

Req: Reported difference in activity during first hour, compound CC#CCC(C)[C@H](O)/C=C/[C@@H]1[C@H]2C/C(=C/CCCC(=O)O)C[C@H]2C[C@H]1O (stereo partly specified) : ____
Resp: 1.64

Req: Reported difference in activity during first hour, compound CC(C)(C)NCC(O)c1ccc(O)c(CO)c1 (stereo unspecified) : ____
Resp: 20.7

Req: Reported difference in activity during first hour, compound CN1CCN(CCCN2c3ccccc3Sc3ccc(C(F)(F)F)cc32)CC1 [Trifluoperazine (hydrochloride)] : ____
Resp: 23.8

Req: Reported difference in activity during first hour, compound `Cc1ccc(C(=O)Nc2ccc(CN3CCN(C)CC3)c(C(F)(F)F)c2)cc1C#Cc1cnc2cccnn12` : ____
Resp: -11

Req: Reported difference in activity during first hour, compound CCCCCCCC(=O)N[C@H](CN1CCCC1)[C@H](O)c1ccc2c(c1)OCCO2 [Eliglustat (hemitartrate)] : ____
Resp: 7.49

Req: Reported difference in activity during first hour, compound `C[C@H]1[C@H](NC(=O)/C(=N\OC(C)(C)C(=O)O)c2csc(N)n2)C(=O)N1S(=O)(=O)O` : ____
Resp: 8.84

Req: Reported difference in activity during first hour, compound COc1c(N2CCNC(C)C2)c(F)cc2c(=O)c(C(=O)O)cn(C3CC3)c12 (stereo unspecified) : ____
Resp: -1.17

Req: Reported difference in activity during first hour, compound COc1ccnc(C[S+]([O-])c2nc3cc(OC(F)F)ccc3[nH]2)c1OC (stereo unspecified) : ____
Resp: 3.07

Req: Reported difference in activity during first hour, compound `CC(C)(Oc1ccc(C(=O)c2ccc(Cl)cc2)cc1)C(=O)O` : ____
Resp: 11.8

Further cases:
Req: Reported difference in activity during first hour, compound `CCOC(=O)[C@H](CCc1ccccc1)N[C@@H](C)C(=O)N1[C@H](C(=O)O)C[C@H]2CCCC[C@@H]21` : ____
Resp: 2.67

Req: Reported difference in activity during first hour, compound CC(=O)N1CCN(c2ccc(OCC3COC(Cn4ccnc4)(c4ccc(Cl)cc4Cl)O3)cc2)CC1 (stereo unspecified) : ____
Resp: -5.85

Req: Reported difference in activity during first hour, compound Cc1cccc(Nc2ccncc2S(=O)(=O)NC(=O)NC(C)C)c1 [Torasemide] : ____
Resp: 6.15

---

System: Danio rerio larvae (5 dpf)
Assay: difference in activity during first hour vs DMSO (percentage points); higher = more activity than DMSO
Conditions: 10 µM; exposure time 6 h
Structures can show the parent of a compound that is named as a salt.
difference in activity during first hour reference
Output spec: single numeric token, no unit.

Req: # value lookup — system Danio rerio larvae (5 dpf), readout difference in activity during first hour, item CCCCCOc1ccc(-c2cc(-c3ccc(C(=O)N[C@H]4C[C@@H](O)[C@@H](O)NC(=O)[C@@H]5[C@@H](O)[C@@H](C)CN5C(=O)[C@H]([C@H](O)CC(N)=O)NC(=O)[C@H]([C@H](O)[C@@H](O)c5ccc(O)c(OS(=O)(=O)O)c5)NC(=O)[C@@H]5C[C@@H](O)CN5C(=O)[C@H]([C@@H](C)O)NC4=O)cc3)no2)cc1 [Micafungin (sodium salt)]
Resp: 19.8

Consider the additional compound presented here.
Req: # value lookup — system Danio rerio larvae (5 dpf), readout difference in activity during first hour, item `O=C(O)c1ccc(-n2nc(-c3ccccc3O)nc2-c2ccccc2O)cc1`
Resp: 17.7

---

System: Danio rerio larvae (5 dpf)
Assay: difference in activity during first hour vs DMSO (percentage points); higher = more activity than DMSO
Conditions: 10 µM; exposure time 6 h
Counter-ions that a name gives are not always drawn.
difference in activity during first hour reference
Output spec: single numeric token, no unit.

Req: Reported difference in activity during first hour, compound COc1ccc2cc(C(C)C(=O)O)ccc2c1 (single isomer, unassigned; (+)) [(+)-Naproxen] : ____
Resp: -2.88

Req: Reported difference in activity during first hour, compound CO[C@H]1C(=O)[C@]2(C)[C@@H](OC)C[C@H]3OC[C@@]3(OC(C)=O)[C@H]2[C@H](OC(=O)c2ccccc2)[C@]2(O)C[C@H](OC(=O)[C@H](O)[C@@H](NC(=O)OC(C)(C)C)c3ccccc3)C(C)=C1C2(C)C [Cabazitaxel] : ____
Resp: 13.7

Req: Reported difference in activity during first hour, compound Nc1ccn([C@@H]2CS[C@H](CO)O2)c(=O)n1 [Lamivudine] : ____
Resp: 9.03

Req: Reported difference in activity during first hour, compound C[C@@H]1O[C@@H]1P(=O)(O)O [Fosfomycin Trometamol] : ____
Resp: -4.99

Req: Reported difference in activity during first hour, compound CC(O)C(O)[C@H]1CNc2nc(N)[nH]c(=O)c2N1 (stereo partly drawn) [(6R)-5,6,7,8-tetrahydro-L-Biopterin (hydrochloride)] : ____
Resp: -0.551

Further cases:
Req: Reported difference in activity during first hour, compound Cc1cn([C@H]2C[C@H](N=[N+]=[N-])[C@@H](CO)O2)c(=O)[nH]c1=O [Zidovudine] : ____
Resp: 0.0973

Req: Reported difference in activity during first hour, compound CC(=O)CC(c1ccccc1)c1c(O)c2ccccc2oc1=O (racemic) [(±)-Warfarin] : ____
Resp: -0.141

Req: Reported difference in activity during first hour, compound C[C@@H](NCCCc1cccc(C(F)(F)F)c1)c1cccc2ccccc12 [Cinacalcet (hydrochloride)] : ____
Resp: 10.2

---

Test system: Danio rerio larvae (5 dpf)
Experiment: difference in excitability vs DMSO (percentage points); higher = more excitable than DMSO
Conditions: 10 µM; exposure time 6 h
Where a name gives a salt, the structure may show the parent alone.
Label f if difference in excitability falls below 8; label t in every other case.

Req: Tell me whether difference in excitability is at least 8 here: CC(=O)OC(C)C[N+](C)(C)C (stereo not drawn) [Acetyl-β-methylcholine (chloride)]
Resp: f

Req: Tell me whether difference in excitability is at least 8 here: `COc1ccc2[nH]c([S@@+]([O-])Cc3ncc(C)c(OC)c3C)nc2c1`
Resp: t

Req: Tell me whether difference in excitability is at least 8 here: CC[C@H](C)[C@H](N)C1=N[C@H](C(=O)N[C@@H](CC(C)C)C(=O)N[C@H](CCC(=O)[O-])C(=O)N[C@H](C(=O)N[C@H]2CCCCNC(=O)[C@H](CC(N)=O)NC(=O)[C@@H](CC(=O)[O-])NC(=O)[C@H](Cc3cnc[nH]3)NC(=O)[C@@H](Cc3ccccc3)NC(=O)[C@H]([C@@H](C)CC)NC(=O)[C@@H](CCCN)NC2=O)[C@@H](C)CC)CS1.[Zn+2] [Bacitracin (zinc)]
Resp: t

Req: Tell me whether difference in excitability is at least 8 here: O=C1c2c(O)ccc(O)c2C(=O)c2c(NCCNCCO)ccc(NCCNCCO)c21 [Mitoxantrone (hydrochloride)]
Resp: t

Req: Tell me whether difference in excitability is at least 8 here: CC(C)[N+](C)(CCOC(=O)C1c2ccccc2Oc2ccccc21)C(C)C [Propantheline (bromide)]
Resp: f

Req: Tell me whether difference in excitability is at least 8 here: `C[C@]12CC[C@@H]3c4ccc(O)cc4CC[C@H]3[C@@H]1CC[C@@H]2O`
Resp: t

Req: Tell me whether difference in excitability is at least 8 here: `O=C(O)CSc1nnc(Br)n1-c1ccc(C2CC2)c2ccccc12`
Resp: f

Req: Tell me whether difference in excitability is at least 8 here: `COC(=O)N[C@H](C(=O)N1CCC[C@H]1c1ncc(-c2ccc(-c3ccc(-c4cnc([C@@H]5CCCN5C(=O)[C@@H](NC(=O)OC)C(C)C)[nH]4)cc3)cc2)[nH]1)C(C)C`
Resp: t

Further cases:
Req: Tell me whether difference in excitability is at least 8 here: `O=C(NC[C@H]1CN(c2ccc(N3CCOCC3=O)cc2)C(=O)O1)c1ccc(Cl)s1`
Resp: f

Req: Tell me whether difference in excitability is at least 8 here: `CCC(C)(C)C(=O)O[C@H]1C[C@@H](C)C=C2C=C[C@H](C)[C@H](CC[C@@H]3C[C@@H](O)CC(=O)O3)[C@H]21`
Resp: f

Req: Tell me whether difference in excitability is at least 8 here: N[C@@H]1CCCCN(c2c(F)cc3c(=O)c(C(=O)O)cn(C4CC4)c3c2Cl)C1 [Besifloxacin (hydrochloride)]
Resp: t

Req: Tell me whether difference in excitability is at least 8 here: COc1ccc(C[C@@H](C)NC[C@H](O)c2ccc(O)c(NC=O)c2)cc1 [Arformoterol (tartrate)]
Resp: t
